system: LOX IMVI melanoma; experiment: NCI-60 one-dose screen, 48 h (100 = growth as untreated, 0 = no growth, -100 = all killed); settings: 10 µM unless noted
The panel holds about 83,000 compounds, 20% with a hit somewhere; the sample as a whole holds those more often.
readout: growth (%)
All answers are understood in %, so give the number only.

Q: Return growth for the following compound: COc1cc2oc(-c3cccc(NC(=O)[C@@H](N)C(C)C)c3)cc(=O)c2c(OC)c1OC
Ans: 94.4

Q: Return growth for the following compound: CCOC(=O)c1c(N)c(C#N)cn1Cc1ccc(Cl)cc1Cl
Ans: 78.8

Q: Return growth for the following compound: CCCCCC[n+]1ccc(SCC(=O)n2ccc3ccccc32)c2ccccc21
Ans: 91.5
